Assay: in vitro
Conditions: rat, gh3-tre-luc cells, AC50 (uM) modified / 1000, Tox21_110001=Tox21_111324; viability, 1 nM T3 present, 24 h
Structures can show the parent of a compound that is named as a salt.
measured-attribute: CC50 at 24 h (µM)
Provide only the numeric value, understood in µM.

Ask: Sample NCCc1cc(O)c(O)cc1O [Oxidopamine hydrochloride] — what was its CC50 at 24 h?
Result: 45.2

###

Tested on: GH3-TRE-Luc cell line
Conditions: read-out: AC50 (uM) modified / 1000; Tox21_110001=Tox21_113102; viability, 1 nM T3 present, 24 h
measured-attribute: CC50 (µM)
Field format: number, assumed µM, no unit text.

Ask: Return reported CC50; argument: COC(=O)[C@H]1[C@H]2C[C@@H]3c4[nH]c5ccccc5c4CCN3C[C@H]2C[C@@H](OC(=O)c2cc(OC)c(OC)c(OC)c2)[C@@H]1OC
Result: 27.7
